Target: T1, Human CXCR2 (human, UniProt P25025 1-360)
T1 sequence: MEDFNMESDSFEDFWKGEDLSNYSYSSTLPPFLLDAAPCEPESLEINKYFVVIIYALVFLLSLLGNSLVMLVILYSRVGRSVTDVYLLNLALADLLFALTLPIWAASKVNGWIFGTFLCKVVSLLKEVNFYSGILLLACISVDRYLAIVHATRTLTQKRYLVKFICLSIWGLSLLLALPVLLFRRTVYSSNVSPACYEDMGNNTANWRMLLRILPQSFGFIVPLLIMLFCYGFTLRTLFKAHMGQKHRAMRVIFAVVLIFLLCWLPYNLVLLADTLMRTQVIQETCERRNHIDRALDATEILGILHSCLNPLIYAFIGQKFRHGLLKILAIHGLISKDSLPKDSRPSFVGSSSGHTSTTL
Test: cell-based or functional assay
Value type: FLIPR IC50, GRO-α induced intracellular calcium release (nM)
Please reply with the bare figure in nM and do not write the unit itself.

Input line: Param item = CXCR20016 (other, not shown: small tags and cut ends) EVQLVESGGGLVQPGGSVRLSCVASGIIFRLSALGWTRQGPGKAREWVAGINSDGTTNYADPVKGRFTISRDNAKNTIYLHMDMLKPEDTAVYYCASGKYRGQGTQVTVSSGGGGSGGGGSGGGGSGGGGSGGGGSGGGGSGGGGSEVQLVESGGELVQPGGSLRLSCAASGSILTINAMGWYRQAPGKQRELVVRRTRGGSTTYQDSVKGRFTISADIAKKTMYLQMNSLKPEDTAVYYCMLDDRGGVYWGQGTQVTVSS ; retrieve measured FLIPR IC50, GRO-α induced intracellular calcium release.
Output line: 2.36

Input line: Request the reported FLIPR IC50, GRO-α induced intracellular calcium release associated with CXCR20013 (bispecific antibody, not shown: small tags and cut ends) EVQLVESGGELVQPGGSLRLSCAASGSILTINAMGWYRQAPGKQRELVVRRTRGGSTTYQDSVKGRFTISADIAKKTMYLQMNSLKPEDTAVYYCMLDDRGGVYWGQGTQVTVSSGGGGSGGGGSGGGGSGGGGSGGGGSGGGGSGGGGSEVQLVESGGGLVQPGGSLRLSCVASGSIVRINTMGWYRQTPGKQRELVADITSGGNINYIDAVKGRFTISRDNTKNTVYLQMNSLKPEDTAVYYCNAEIVVLVGVWTQRARTGNYWGQGTQVTVSS
Output line: 2.93
